Target: human CRF1 receptor (Homo sapiens, UniProt P34998)
Sequence (P34998 24-415): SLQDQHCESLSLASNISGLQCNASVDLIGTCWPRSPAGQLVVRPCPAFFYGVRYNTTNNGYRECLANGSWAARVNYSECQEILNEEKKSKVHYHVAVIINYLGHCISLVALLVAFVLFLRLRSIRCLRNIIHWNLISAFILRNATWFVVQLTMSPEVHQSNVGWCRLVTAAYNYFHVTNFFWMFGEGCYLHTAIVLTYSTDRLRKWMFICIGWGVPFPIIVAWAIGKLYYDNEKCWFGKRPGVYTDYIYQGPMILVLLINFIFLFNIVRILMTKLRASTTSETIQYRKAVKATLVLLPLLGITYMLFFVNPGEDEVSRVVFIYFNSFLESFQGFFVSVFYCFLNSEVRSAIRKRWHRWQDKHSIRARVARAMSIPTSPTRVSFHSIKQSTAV
Assay: Measurement of CRF binding inhibitory rate (125I-CRF receptor binding, CHO cellular membrane fraction)
Conditions: human CRF1 receptor expressing CHO cellular membrane fraction, 50 pM 125I-CRF, 0.05 nM to 10 μM of compound; read-out: IC50 values (CRF binding inhibition)
pIC50: −log10 of the molar value.
ASSAY ENDPOINT: pIC50

// field: pIC50; key: COc1ccc(N2CCCn3c2nc2c(Cl)ccc(C(OCC(F)(F)F)C4CC4)c23)c(Cl)c1 (stereo not shown) ; value = > 6.00

Source listed as patent US8901141B2.
